# SYSTEM: T1, EGFRvIII receptor in NR6 M cells (Homo sapiens, UniProt P00533, DELINS30-297G)
# T1 construct: NR6 M cells stably expressing full length EGFRvIII; expressed in transfected cells; host or cells: NR6 cells (NR6 M)
# ASSAY_METHOD_TEXT: Internalization of EGFRvIII receptor by recombinant mAbs (FACS)
# Format: cell-based
# CONDITION_SET: 0.25 μg/ml antibody, 1 hr
FACS Geometric mean With glutathione 37° C. values for the molecules below.

Requested field: FACS Geometric mean With glutathione 37° C.. Item: 150: XenoMax derived anti-EGFRvIII antibody, SEQ ID NO: 5/21 (antibody, listed as Homo sapiens, V domains shown) VH: QVQLQQSGPGLVKPSQTLSLTCAISGDSVSSYSSAWNWIRQSPSRGLEWLGRAYHRSRWYYEYAVSVKSRINITPDTSKNQFSLQLNSVTPEDTAVYYCARGSRFDYWGQGTLVTVSS VL: DIVMTQTPLSSPVTLGQPASISCRSSQSLVHRDGNTYLSWLQQRPGQPPRLLIYKISNRFSGVPDRFSGSGAGTDFTLKISRVEAEDVGIYFCMHTTQFPWTFGQGTRVEIK
7.78

Requested field: FACS Geometric mean With glutathione 37° C.. Item: 170: XenoMax derived anti-EGFRvIII antibody, SEQ ID NO: 4/20 (antibody, listed as Homo sapiens, V domains shown) VH: QVQLQQSGPGLVKPSQTLSLTCAISGDSVSSNNAAWNWIRQSPARGLEWLGRTYYRSKWYNDYVVSVKSRITINPDTSKNQFSLQLNSVTPEDTAVYYCVRATAFDYWGQGTLVTVSS VL: AIVLTQTPLSSPVTLGQPASISCRSSQSLVHRDGNTYLSWLQQRPGQPPRLLIYKISNRFSGVPDRFSGSGAGTDFTLKISRVEPDDVGVYYCMHTTQLPWTFGQGTKVEIK
7.75

Requested field: FACS Geometric mean With glutathione 37° C.. Item: 250: XenoMax derived anti-EGFRvIII antibody, SEQ ID NO: 9/26 (antibody, listed as Homo sapiens, V domains shown) VH: EGQLLESGGGWVQPGESLRLSCAASGFTFSSYAMSWVRQAPGKGLEWVSAISGSGGSTNYADSVKGRFTISRDNSKNTLYLQVNSLRVEDTAVYYCAGSSGWSEYWGQGTLVTVSS VL: DIQMTQSPSSLSASVGDSVTITCRTSQGIRKNLGWYQQKPGKAPKRLIYAASSLQSGVPSRFSGSGSGTEFTLTISRLQPEDFATYYCLQHHSYPLTFGGGTRVEIR
8.07

Requested field: FACS Geometric mean With glutathione 37° C.. Item: 211: XenoMax derived anti-EGFRvIII antibody, SEQ ID NO: 12/28 (antibody, listed as Homo sapiens, V domains shown) VH: QVQLVESGGGVVQPGRSLRLSCVASGFTLSSYGMHWVRQAPGKGLEWVAVTSYDGSKKDYADSAKGRFTISRDNSKNTLYLQMNSLRAEDTAVYYCVSEGYCSSSSCYKYYYYGMDVWGQGTTVTVSS VL: DIVMTQSPLSLPVTPGEPASISCRSSQSLLYRNGNNYLDWYLQRPGQSPQLLIYLGSNRASGVPDRFSGSGSGTDFTLKISRVEAEDVGVYYCMQALQTPRTFGQGTKVEIK
8.23
